test system: MDA-MB-468; experiment: drug sensitivity score (DSS), CellTiter-Glo (DSS (AUC-based score)); higher = stronger drug effect (viability inhibition or cytotoxicity); extreme values may be limits of the assay; details: incubation time: 72 h
Items are presented alongside their recorded drug sensitivity score.
Just the number, please, no unit attached.

The reported value for O=C(c1cc(Cc2n[nH]c(=O)c3ccccc23)ccc1F)N1CCN(C(=O)C2CC2)CC1 in terms of drug sensitivity score is 2.57

The reported value for C[C@]12C=CC(=O)C=C1CC[C@@H]1[C@@H]2C(=O)C[C@@]2(C)[C@H]1CC[C@]2(O)C(=O)CO in terms of drug sensitivity score is 0

The reported value for CC(C)NC[C@@H](C(=O)N1CCN(c2ncnc3c2[C@H](C)C[C@H]3O)CC1)c1ccc(Cl)cc1 in terms of drug sensitivity score is 8.65

The reported value for C[C@@H](C(=O)O)c1ccc(-c2ccccc2)c(F)c1 in terms of drug sensitivity score is 0

The reported value for CCc1cnn2c(NCc3ccc[n+]([O-])c3)cc(N3CCCC[C@H]3CCO)nc12 in terms of drug sensitivity score is 18.3

The reported value for CCN(CC)CCOc1ccc(C(=C(Cl)c2ccccc2)c2ccccc2)cc1 in terms of drug sensitivity score is 0

The reported value for CC(C)C[C@H](NC(=O)[C@H](CCc1ccccc1)NC(=O)CN1CCOCC1)C(=O)N[C@@H](Cc1ccccc1)C(=O)N[C@@H](CC(C)C)C(=O)[C@@]1(C)CO1 in terms of drug sensitivity score is 29.9

The reported value for Nc1nc(Cl)nc2c1ncn2[C@@H]1O[C@H](CO)[C@@H](O)[C@@H]1F in terms of drug sensitivity score is 11.7
